The binders listed here are annotated with their absorbance at 450 nm.
- Experimental System: T1, LILRA3-His (Acro, LI3-H82E0) (human, UniProt Q8N6C8 24-439)
- T1 construct: Bought protein. 'Human' stands at the head of the list of coated proteins; not shown: His tag
- T1 sequence (Q8N6C8 24-439 limits assumed): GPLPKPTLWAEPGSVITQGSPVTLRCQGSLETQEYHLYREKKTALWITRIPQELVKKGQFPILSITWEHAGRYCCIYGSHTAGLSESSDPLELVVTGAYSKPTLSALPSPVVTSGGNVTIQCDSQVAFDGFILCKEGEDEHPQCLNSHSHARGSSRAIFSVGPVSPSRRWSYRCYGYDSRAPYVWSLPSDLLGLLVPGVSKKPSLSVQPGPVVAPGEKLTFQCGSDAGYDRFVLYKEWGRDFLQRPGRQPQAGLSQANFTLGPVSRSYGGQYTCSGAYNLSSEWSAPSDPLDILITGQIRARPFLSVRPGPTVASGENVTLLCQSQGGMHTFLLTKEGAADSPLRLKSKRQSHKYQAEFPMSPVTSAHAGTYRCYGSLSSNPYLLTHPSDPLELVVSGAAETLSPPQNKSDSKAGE
- Assay: ELISA, coated protein 1 µg/mL, antibody 10 µg/mL
Respond numerically; units are absorbance at 450 nm and should not be typed.

Solved cases (3 shown):
{"columns": ["Binder", "Quantity Measured", "U", "Reading"],
 "data": [
  ["humanized antibody huP2-G9 (antibody, human IgG1, kappa, L234A L235A, V domains shown, Full chains; also called P2-G9H1L2) VH: EVQLQESGPGLVKPSQTLSLTCTVSGSSITSGYYWNWIRQHPGKGLEWIGYLSYDGSNNYNPSLKNLVTISRDTSKNQFSLKLSSVTAADTAVYYCAREGAHYSGTLSWFAYWGQGTLVTVSS VL: DIQMTQSPSSLSASVGDRVTITCRASENIYSNLAWYQQKPGKSPKLLVYAATNLADGVPSRFSGSGSGTDYTLTISSLQPEDFATYYCQHFWDTPYTFGGGTKVEIKR", "absorbance at 450 nm", "absorbance at 450 nm", 0.0461],
  ["humanized antibody huP2-C6 (antibody, human IgG1, kappa, L234A L235A, V domains shown, Full chains; also called P2-C6H7L1) VH: EVQLVQSGAEVKKPGASVKVSCKASGYTFTDYYIHWVRQAPGQGLEWMGYIYPDTGYSGYNQKFKGRVTMTVDKSTSTAYMELRSLRSDDTAVYYCTRRGDYSGVHFDYWGQGTTVTVSS VL: DIVLTQSPDSLAVSLGERATINCRASESVNNYGVGFLHWYQQKPGQPPKLLIYRASTLESGIPDRFSGSGSGTDFTLTISSLQAEDVAVYYCQHSYKDPPWTFGGGTKVEIKR", "absorbance at 450 nm", "absorbance at 450 nm", 0.0613],
  ["humanized antibody huP2-E3 (antibody, human IgG4 S228P, kappa, F234A L235A, V domains shown, Full chains; The constant region is hIgG1(LALA) or hIgG4(LALA) with a kappa CL; also called P2-E3H6L2) VH: EVQLVQSGAEVKKPGASVKVSCKASGYTFTDYYMNWVKQAPGQRLEWMGDINPNSGGTSYNQKFKGRVTITVDKSGSTAYMELSSLRSEDTAVYYCARGGVTTVVATYWYFDVWGQGTTVTVSS VL: DIQMTQSPSSLSASVGDRVTITCRASENIYSNLAWYQQKPGKSPKLLVYAATNVADGVPSRFSGSGSGTDYTLTISSLQPEDFATYYCQQFWDTPFTFGQGTKLEIKR", "absorbance at 450 nm", "absorbance at 450 nm", 0.0476]
]}

// absorbance at 450 nm lookup, key: fully human-derived antibody P2m (antibody, human IgG1, kappa, L234A L235A, V domains shown, Full chains) VH: QVQLVQSGAEVKKPGSSVKVSCKASGYTFTSYDISWVRQAPGQGLEWMGGIIPIFGTANYAQKFQGRVTITADESTSTAYMELSSLRSEDTAVYYCTAGIFLATAYWGQGTLVTVSS VL: DIQMTQSPSSMSASVGDRVTISCQASQDIQNYLNWYQQRPGQAPKLLIYDASTLETGVPSRFSGSGSGTYFTLTISSLQPEDVATYYCQQYENVPITFGQGTRLEIKR
0.0468

# absorbance at 450 nm lookup, item humanized antibody huP2-E8 (antibody, human IgG4 S228P, kappa, F234A L235A, V domains shown, Full chains; also called P2-E8H4L1) VH: EVQLVESGGGLVKPGGSLRLSCAASGFTFSDYGIHWVRQAPGKGLEWVAYISSGSSIHNYADTVKGRFTISRDNAKNSLYLQMNSLRAEDTAVYYCARGPNYYGSSYLLVYWGQGTLVTVSS VL: DIQMTQSPSSLSASVGDRVTITCKASQDVNIAVAWYQQKPGKAPKLLIYSASYRYTGVPSRFSGSGSGTDFTFTISSLQPEDIATYYCQQHYNIPWTFGGGTKVEIKR
0.0467
